For each of the molecules below, state its melting point.

Cc1cc(C#N)cc(C(=O)NC2(C)CS(=O)(=O)C2)c1NC(=O)c1cc(OCC(F)(F)F)nn1-c1ncccc1Cl ... 216 to 219 °C
Cc1cc(Cl)cc(C(=O)NC2(C)C[S+]([O-])C2)c1NC(=O)c1cc(OCC(F)(F)F)nn1-c1ncccc1Cl (centres unmarked) ... 220 to 222 °C
CCC1(NC(=O)c2cc(Cl)cc(C)c2NC(=O)c2cc(C(F)(F)F)nn2-c2ncccc2Cl)CS(=O)(=O)C1 ... 234 to 236 °C

Items follow; give melting point for each.
1. Cc1cc(Cl)cc(C(=O)NC2(C)CS(=O)(=O)C2)c1NC(=O)c1cc(OCC(F)(F)F)nn1-c1ncccc1Cl
2. Cc1cc(C#N)cc(C(=O)NC2(C)CS(=O)(=O)C2)c1NC(=O)c1cc(C(F)F)nn1-c1ncccc1Cl
3. Cc1cc(C#N)cc(C(=O)NC2CS(=O)(=O)C2)c1NC(=O)c1cc(C(F)F)nn1-c1ncccc1Cl
4. Cc1cc(Cl)cc(C(=O)NC2(C)CS(=O)(=O)C2)c1NC(=O)c1cc(Br)nn1-c1ncccc1Cl

1: > 250 °C; 2: 238 to 241 °C; 3: 158 to 160 °C; 4: 191 to 193 °C

Items follow; give melting point for each.
1. Cc1cc(Cl)cc(C(=O)NC2C[S+]([O-])C2)c1NC(=O)c1cc(C(F)(F)F)nn1-c1ncccc1Cl (single isomer, unassigned)
2. Cc1cc(C#N)cc(C(=O)NC2(C)C[S+]([O-])C2)c1NC(=O)c1cc(C(F)F)nn1-c1ncccc1Cl (centres unmarked)
3. Cc1cc(Cl)cc(C(=O)NC2C[S+]([O-])C2)c1NC(=O)c1cc(C(F)F)nn1-c1ncccc1Cl (centres unmarked)
4. Cc1cc(C#N)cc(C(=O)NC2(C)C[S+]([O-])C2)c1NC(=O)c1cc(Br)nn1-c1ncccc1Cl (centres unmarked)
5. Cc1cc(C#N)cc(C(=O)NC2(C)C[S+]([O-])C2)c1NC(=O)c1cc(OCC(F)(F)F)nn1-c1ncccc1Cl (centres unmarked)

1. 241 to 244 °C
2. 235 to 237 °C
3. 171 to 173 °C
4. 244 to 249 °C
5. 223 to 225 °C

Items follow; give melting point for each.
1. Cc1cc(Cl)cc(C(=O)NC2(C)C[S+]([O-])C2)c1NC(=O)c1cc(Br)nn1-c1ncccc1Cl (centres unmarked)
2. Cc1cc(C#N)cc(C(=O)NC2C[S+]([O-])C2)c1NC(=O)c1cc(C(F)F)nn1-c1ncccc1Cl (centres unmarked)

["244 to 247 °C", "230 to 233 °C"]

Items follow; give melting point for each.
1. Cc1cc(Cl)cc(C(=O)NC2(C)CS(=O)(=O)C2)c1NC(=O)c1cc(C(F)F)nn1-c1ncccc1Cl
2. Cc1cc(Cl)cc(C(=O)NC2(C)C[S+]([O-])C2)c1NC(=O)c1cc(C(F)F)nn1-c1ncccc1Cl (centres unmarked)
3. Cc1cc(Cl)cc(C(=O)NC2CS(=O)(=O)C2)c1NC(=O)c1cc(C(F)F)nn1-c1ncccc1Cl

1. 170 to 173 °C
2. 169 to 173 °C
3. 151 to 155 °C
